- experimental target: Insulin-like growth factor 1 receptor (Homo sapiens, UniProt P08069)
- Sequence (P08069 31-736 limits assumed): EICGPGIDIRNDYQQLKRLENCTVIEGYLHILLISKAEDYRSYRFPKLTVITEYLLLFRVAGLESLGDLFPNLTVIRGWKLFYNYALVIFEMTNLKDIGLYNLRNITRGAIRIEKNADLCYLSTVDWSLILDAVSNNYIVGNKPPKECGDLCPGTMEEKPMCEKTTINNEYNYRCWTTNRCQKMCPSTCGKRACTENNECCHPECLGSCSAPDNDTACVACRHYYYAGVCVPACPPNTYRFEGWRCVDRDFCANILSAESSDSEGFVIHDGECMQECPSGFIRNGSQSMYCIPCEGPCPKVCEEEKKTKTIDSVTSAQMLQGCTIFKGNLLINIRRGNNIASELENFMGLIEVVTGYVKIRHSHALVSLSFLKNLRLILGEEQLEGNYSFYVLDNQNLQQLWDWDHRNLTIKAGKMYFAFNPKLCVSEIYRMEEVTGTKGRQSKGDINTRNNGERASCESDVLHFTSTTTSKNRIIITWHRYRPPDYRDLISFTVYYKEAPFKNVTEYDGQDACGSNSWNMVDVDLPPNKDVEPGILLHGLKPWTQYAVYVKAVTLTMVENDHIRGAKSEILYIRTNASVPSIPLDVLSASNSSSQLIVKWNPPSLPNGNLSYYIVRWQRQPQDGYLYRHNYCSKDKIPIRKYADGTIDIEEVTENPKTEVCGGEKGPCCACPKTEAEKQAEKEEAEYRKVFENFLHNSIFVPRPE
- Sequence (P08069 741-1367 limits assumed): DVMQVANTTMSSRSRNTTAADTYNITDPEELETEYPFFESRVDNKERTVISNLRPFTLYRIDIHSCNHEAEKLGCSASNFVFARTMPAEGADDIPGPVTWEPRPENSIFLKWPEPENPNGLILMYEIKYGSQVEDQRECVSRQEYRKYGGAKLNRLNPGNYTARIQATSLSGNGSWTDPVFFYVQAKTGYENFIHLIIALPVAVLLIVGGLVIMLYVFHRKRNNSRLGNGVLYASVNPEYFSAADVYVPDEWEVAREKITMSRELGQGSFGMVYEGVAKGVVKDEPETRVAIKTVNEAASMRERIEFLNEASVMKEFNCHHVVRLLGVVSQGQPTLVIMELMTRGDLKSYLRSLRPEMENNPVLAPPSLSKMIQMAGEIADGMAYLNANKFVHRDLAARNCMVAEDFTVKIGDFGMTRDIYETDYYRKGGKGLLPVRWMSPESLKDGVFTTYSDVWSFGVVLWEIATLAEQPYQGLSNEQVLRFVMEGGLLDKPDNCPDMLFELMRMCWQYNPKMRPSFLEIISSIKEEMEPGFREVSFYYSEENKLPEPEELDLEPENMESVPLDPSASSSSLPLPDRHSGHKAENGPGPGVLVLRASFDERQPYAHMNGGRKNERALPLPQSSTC
- experiment: Inhibition of recombinant IGF1R (unknown origin) using poly (Glu,Tyr)4:1 as substrate after 60 mins by ELISA
value kind: IC50

Returns the measured IC50 for the input molecule. Input: CCc1cc2c(cc1N1CCN(CC3(O)CCOCC3)CC1)C(C)(C)c1[nH]c3cc(C#N)ccc3c1C2=O
> 1000 nM

###

- experiment: Clearance in Sprague-Dawley rat at 5 mg/kg, iv
- Format: ADME, organism-based
- test conditions: in vivo
value kind: clearance

I'd like to know its clearance. The compound in question is CCc1cc2c(cc1N1CCN(CC3(O)CCOCC3)CC1)C(C)(C)c1[nH]c3cc(C#N)ccc3c1C2=O
12.2 mL/min/kg

###

- experiment: AUC (0 to infinity) in Sprague-Dawley rat at 5 mg/kg, iv
- Type: ADME, organism-based
- Set-up: dose 5 mg/kg, time infinity, route intravenous
- test conditions: in vivo
value kind: AUC(0-inf) (ng·h/mL)
The figure you give is taken to be in ng·h/mL; do not add the unit.

# get_value(readout='AUC(0-inf)', item= CCc1cc2c(cc1N1CCN(CC3(O)CCOCC3)CC1)C(C)(C)c1[nH]c3cc(C#N)ccc3c1C2=O )
6640

###

- experimental target: UniProt:P09619
- experiment: Inhibition of recombinant PDGFR-beta (unknown origin) using poly (Glu,Tyr)4:1 as substrate after 60 mins by ELISA
pIC50: −log10 of the molar value.
value kind: pIC50

Given the entry CCc1cc2c(cc1N1CCN(CC3(O)CCOCC3)CC1)C(C)(C)c1[nH]c3cc(C#N)ccc3c1C2=O , report its measured pIC50.
< 6.00

###

- experimental target: UniProtKB P04626
- Sequence (P04626 whole entry): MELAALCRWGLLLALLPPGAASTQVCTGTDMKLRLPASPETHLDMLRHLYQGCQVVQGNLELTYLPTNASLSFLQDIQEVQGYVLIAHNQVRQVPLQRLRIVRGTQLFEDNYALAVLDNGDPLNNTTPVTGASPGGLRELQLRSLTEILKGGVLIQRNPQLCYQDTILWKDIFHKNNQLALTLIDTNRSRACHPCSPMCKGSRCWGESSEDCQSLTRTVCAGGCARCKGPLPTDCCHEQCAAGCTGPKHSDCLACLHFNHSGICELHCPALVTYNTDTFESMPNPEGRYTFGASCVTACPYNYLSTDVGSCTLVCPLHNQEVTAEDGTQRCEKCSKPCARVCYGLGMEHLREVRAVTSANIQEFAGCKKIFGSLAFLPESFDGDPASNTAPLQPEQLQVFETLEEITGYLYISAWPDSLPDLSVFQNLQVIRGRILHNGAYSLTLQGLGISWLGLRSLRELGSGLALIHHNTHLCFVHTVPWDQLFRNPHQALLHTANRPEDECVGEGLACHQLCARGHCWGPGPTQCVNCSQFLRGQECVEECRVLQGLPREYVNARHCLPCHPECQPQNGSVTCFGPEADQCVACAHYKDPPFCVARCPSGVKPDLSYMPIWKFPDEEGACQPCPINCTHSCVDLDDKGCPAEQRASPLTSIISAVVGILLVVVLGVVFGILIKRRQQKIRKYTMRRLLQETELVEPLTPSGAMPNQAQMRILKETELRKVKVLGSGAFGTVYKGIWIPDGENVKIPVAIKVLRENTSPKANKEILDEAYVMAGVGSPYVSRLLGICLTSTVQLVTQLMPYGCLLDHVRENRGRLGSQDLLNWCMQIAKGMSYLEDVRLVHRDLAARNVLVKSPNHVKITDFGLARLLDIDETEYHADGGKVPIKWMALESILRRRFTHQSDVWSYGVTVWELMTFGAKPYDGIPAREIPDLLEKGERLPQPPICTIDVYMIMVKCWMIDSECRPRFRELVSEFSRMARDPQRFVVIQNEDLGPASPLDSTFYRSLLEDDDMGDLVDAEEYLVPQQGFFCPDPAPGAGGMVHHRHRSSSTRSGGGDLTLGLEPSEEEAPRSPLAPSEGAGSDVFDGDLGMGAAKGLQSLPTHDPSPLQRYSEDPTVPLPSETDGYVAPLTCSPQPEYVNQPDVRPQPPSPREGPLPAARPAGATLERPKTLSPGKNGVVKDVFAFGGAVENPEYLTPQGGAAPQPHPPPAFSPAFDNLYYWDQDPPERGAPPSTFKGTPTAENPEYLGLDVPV
- experiment: Inhibition of recombinant ErbB2 (unknown origin) using poly (Glu,Tyr)4:1 as substrate after 60 mins by ELISA
pIC50: −log10 of the molar value.
value kind: pIC50

Look up pIC50: CCc1cc2c(cc1N1CCN(CC3(O)CCOCC3)CC1)C(C)(C)c1[nH]c3cc(C#N)ccc3c1C2=O
< 6.00

###

- experiment: Volume of distribution in Sprague-Dawley rat at 5 mg/kg, iv
- Format: ADME, organism-based
- test conditions: in vivo
value kind: Vd (L/kg)
# number only, unit L/kg dropped from output

// lookup Vd for CCc1cc2c(cc1N1CCN(CC3(O)CCOCC3)CC1)C(C)(C)c1[nH]c3cc(C#N)ccc3c1C2=O
5

###

- experimental target: Mast/stem cell growth factor receptor Kit (Homo sapiens)
- Sequence (P10721 whole entry): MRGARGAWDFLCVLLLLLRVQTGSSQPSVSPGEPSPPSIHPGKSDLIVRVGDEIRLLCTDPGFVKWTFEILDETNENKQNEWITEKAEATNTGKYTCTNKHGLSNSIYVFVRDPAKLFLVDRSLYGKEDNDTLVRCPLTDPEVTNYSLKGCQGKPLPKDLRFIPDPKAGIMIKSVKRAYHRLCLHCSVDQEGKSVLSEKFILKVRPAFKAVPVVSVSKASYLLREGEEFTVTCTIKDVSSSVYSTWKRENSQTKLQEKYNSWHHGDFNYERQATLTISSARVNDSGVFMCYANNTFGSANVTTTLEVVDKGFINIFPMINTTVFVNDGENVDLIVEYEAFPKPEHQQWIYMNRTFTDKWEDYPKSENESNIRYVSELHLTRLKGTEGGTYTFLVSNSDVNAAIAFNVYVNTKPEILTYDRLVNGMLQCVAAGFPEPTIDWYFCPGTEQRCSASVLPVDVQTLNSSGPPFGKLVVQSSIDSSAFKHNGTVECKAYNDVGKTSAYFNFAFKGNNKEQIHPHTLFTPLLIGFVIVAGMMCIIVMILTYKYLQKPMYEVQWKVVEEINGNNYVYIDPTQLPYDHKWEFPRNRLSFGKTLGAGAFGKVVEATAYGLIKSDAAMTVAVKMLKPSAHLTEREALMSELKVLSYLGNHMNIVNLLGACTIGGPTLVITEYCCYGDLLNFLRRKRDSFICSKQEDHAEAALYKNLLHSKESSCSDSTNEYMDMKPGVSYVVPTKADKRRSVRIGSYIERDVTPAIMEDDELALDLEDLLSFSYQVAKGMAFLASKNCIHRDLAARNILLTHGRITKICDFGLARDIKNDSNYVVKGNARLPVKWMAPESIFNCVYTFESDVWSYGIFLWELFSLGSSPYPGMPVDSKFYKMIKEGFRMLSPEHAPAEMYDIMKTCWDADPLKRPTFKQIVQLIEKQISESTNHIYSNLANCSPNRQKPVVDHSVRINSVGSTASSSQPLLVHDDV
- experiment: Inhibition of recombinant c-Kit (unknown origin) using poly (Glu,Tyr)4:1 as substrate after 60 mins by ELISA
value kind: IC50

Looking for the measured IC50 of CCc1cc2c(cc1N1CCN(CC3(O)CCOCC3)CC1)C(C)(C)c1[nH]c3cc(C#N)ccc3c1C2=O , can you help?
> 1000 nM

###

- experimental target: Receptor tyrosine-protein kinase erbB-4 (Homo sapiens)
- Sequence (Q15303 whole entry): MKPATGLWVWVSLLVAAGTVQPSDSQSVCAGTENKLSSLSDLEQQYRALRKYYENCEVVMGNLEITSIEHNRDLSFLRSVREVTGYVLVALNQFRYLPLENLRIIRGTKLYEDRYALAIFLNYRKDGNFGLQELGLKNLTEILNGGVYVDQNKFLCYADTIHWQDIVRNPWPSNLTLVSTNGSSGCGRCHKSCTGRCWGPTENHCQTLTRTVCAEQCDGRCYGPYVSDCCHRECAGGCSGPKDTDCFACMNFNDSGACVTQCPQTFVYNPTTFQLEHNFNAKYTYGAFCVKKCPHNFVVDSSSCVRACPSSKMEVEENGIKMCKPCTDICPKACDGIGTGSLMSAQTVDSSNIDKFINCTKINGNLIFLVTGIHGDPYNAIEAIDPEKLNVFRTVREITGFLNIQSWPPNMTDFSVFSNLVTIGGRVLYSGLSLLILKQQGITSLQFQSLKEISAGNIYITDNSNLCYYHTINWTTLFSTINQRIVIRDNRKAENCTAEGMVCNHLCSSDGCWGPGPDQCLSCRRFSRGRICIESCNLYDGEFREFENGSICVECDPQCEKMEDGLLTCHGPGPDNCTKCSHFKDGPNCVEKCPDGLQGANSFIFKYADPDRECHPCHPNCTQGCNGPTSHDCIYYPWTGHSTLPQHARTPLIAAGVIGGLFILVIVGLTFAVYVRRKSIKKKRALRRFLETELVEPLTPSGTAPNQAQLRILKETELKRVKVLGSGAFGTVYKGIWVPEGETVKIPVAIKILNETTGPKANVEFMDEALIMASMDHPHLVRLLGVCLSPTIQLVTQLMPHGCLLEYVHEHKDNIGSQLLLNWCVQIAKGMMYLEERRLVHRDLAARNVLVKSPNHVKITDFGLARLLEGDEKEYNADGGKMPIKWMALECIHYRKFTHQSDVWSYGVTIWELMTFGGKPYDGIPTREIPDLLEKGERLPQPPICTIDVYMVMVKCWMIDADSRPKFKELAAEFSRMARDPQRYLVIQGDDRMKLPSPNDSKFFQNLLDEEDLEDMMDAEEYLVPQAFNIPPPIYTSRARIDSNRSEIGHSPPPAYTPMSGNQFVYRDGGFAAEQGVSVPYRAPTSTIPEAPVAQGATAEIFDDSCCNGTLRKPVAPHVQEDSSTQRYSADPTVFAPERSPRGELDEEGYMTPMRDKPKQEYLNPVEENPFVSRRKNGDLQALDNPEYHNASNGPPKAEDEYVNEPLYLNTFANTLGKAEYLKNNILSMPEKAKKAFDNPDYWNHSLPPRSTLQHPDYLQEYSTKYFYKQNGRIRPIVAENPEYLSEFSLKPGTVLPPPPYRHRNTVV
- experiment: Inhibition of recombinant ErbB4 (unknown origin) using poly (Glu,Tyr)4:1 as substrate after 60 mins by ELISA
pIC50: −log10 of the molar value.
value kind: pIC50

// pIC50 lookup, key: CCc1cc2c(cc1N1CCN(CC3(O)CCOCC3)CC1)C(C)(C)c1[nH]c3cc(C#N)ccc3c1C2=O
< 6.00
